- Test system: Leishmania major
- EXPERIMENT: Antileishmanial activity against promastigote form of Leishmania major MRHO/IR/75/ER after 24 hrs by MTT assay
- Assay type: functional, organism-based
- MEASUREMENT CONDITIONS: Leishmania major, MRHO/IR/75/ER, 24 h
Exam item: assign t to entries whose IC50 is below 20 µM and f to entries at or above 20 µM. Note that a value of exactly 20 µM receives f.

q: Identify whether the compound Cn1c([N+](=O)[O-])cnc1-c1nnc(N2CCN(C(=O)c3ccc(Cl)cc3)CC2)s1 records IC50 below 20 µM.
a: f

q: Identify whether the compound Cn1c([N+](=O)[O-])cnc1-c1nnc(N2CCN(C(=O)c3ccc(Cl)s3)CC2)s1 records IC50 below 20 µM.
a: t

---

- System: Leishmania major
- EXPERIMENT: Antileishmanial activity against promastigote form of Leishmania major MRHO/IR/75/ER after 24 hrs by MTT assay
- Format: functional, organism-based
- MEASUREMENT CONDITIONS: Leishmania major, MRHO/IR/75/ER, 24 h
Would you kindly list pIC50 for each of these compounds?
Answers are plain numbers, as −log10 of the molar value.

Known pIC50 results, listed for orientation:
[[record]]
input_smiles = "Cn1c([N+](=O)[O-])cnc1-c1nnc(N2CCN(C(=O)c3cccs3)CC2)s1"
measured_result = 4.59

[[record]]
input_smiles = "Cn1c([N+](=O)[O-])cnc1-c1nnc(N2CCN(C(=O)c3cccc(Cl)c3)CC2)s1"
measured_result = 4.75

[[record]]
input_smiles = "Cn1c([N+](=O)[O-])cnc1-c1nnc(N2CCN(C(=O)c3ccccc3Cl)CC2)s1"
measured_result = 4.69

[[record]]
input_smiles = "Cn1c([N+](=O)[O-])cnc1-c1nnc(N2CCN(C(=O)c3ccccc3)CC2)s1"
measured_result = 4.98


We now examine a further compound.
q: For Cn1c([N+](=O)[O-])cnc1-c1nnc(N2CCN(C(=O)c3ccc(Br)s3)CC2)s1 , write its pIC50.
a: 4.80
